Numbers sourced from patent US11851449B2.

# system-under-test: RORγt (Homo sapiens, UniProt P51449)
# Sequence (P51449 1-497 isoform P51449-2, species assumed): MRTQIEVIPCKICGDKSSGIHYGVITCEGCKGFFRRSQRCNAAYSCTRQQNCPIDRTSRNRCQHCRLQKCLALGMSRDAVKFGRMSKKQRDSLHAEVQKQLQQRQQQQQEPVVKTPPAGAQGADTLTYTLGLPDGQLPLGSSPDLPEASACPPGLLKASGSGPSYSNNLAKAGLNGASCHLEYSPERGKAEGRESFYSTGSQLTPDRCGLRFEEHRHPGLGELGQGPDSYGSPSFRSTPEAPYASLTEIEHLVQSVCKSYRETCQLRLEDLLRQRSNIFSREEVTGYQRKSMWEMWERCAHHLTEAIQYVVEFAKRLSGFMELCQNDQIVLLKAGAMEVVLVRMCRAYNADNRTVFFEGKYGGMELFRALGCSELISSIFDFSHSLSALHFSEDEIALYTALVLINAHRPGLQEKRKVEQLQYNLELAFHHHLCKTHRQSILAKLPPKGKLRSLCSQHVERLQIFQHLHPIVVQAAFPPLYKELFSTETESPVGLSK
# test-summary: Cofactor recruitment test (Alpha Screen, biotinylated SRC-1 peptide)
# Type: biochemical
# experimental-setup: read-out: signal value inhibitory rate (%) at test compound 1 μM
Items are presented alongside their recorded inhibition at 1 µM.
recorded-endpoint: inhibition at 1 µM (%)

- COc1ccc(C(NC(=O)N2CC(O)C2)C(=O)Nc2cc(F)c([Si](C)(C)C)c(F)c2)cc1 (centres unmarked) [Example 41]: 94.4
- COCc1ccc([C@@H](NC(=O)Cc2nnc(C)o2)C(=O)Nc2cc(F)c([Si](C)(C)C)c(F)c2)cc1 [Example 74]: 97.6
- COc1ccc(C(NC(=O)Cn2cnc3ccccc32)C(=O)Nc2ccc([Si](C)(C)C)cc2)cc1 (centres unmarked) [Example 289]: 87.2
- CC(C)(C)c1ccc(NC(=O)[C@H](NC(=O)CC(F)(F)F)C2CCOCC2)cc1Cl [Example 9]: 29.7
- COc1ccc([C@@H](NC(=O)[C@H]2CNC(=O)C2)C(=O)Nc2ccc([Si](C)(C)C)c(F)c2)cc1 [Example 70]: 82.8
- COc1ccc(C(NC(=O)Cc2cnn(C)c2)C(=O)Nc2ccc([Si](C)(C)C)cc2)cc1 (centres unmarked) [Example 20]: 73
- COCc1ccc([C@@H](NC(=O)[C@H]2CNC(=O)C2)C(=O)Nc2ccc([Si](C)(C)C)c(F)c2)cc1 [Example 54]: 95.6
- C[Si](C)(C)c1ccc(NC(=O)C(NC(=O)[C@@H]2CNC(=O)C2)C2CCC(F)(F)CC2)cc1F (some centres unmarked) [Example 5]: 84.8
- Cn1ncc2cc([C@@H](NC(=O)[C@@H]3CNC(=O)C3)C(=O)Nc3ccc([Si](C)(C)C)c(F)c3)ccc21 [Example 112]: 83.2
- COCc1ccc([C@@H](NC(=O)Cn2ccc(=O)[nH]c2=O)C(=O)Nc2ccc(C(C)(C)C)c(F)c2)cc1 [Example 116]: 76.6
- COCc1ccc([C@@H](NC(=O)CNC(C)=O)C(=O)Nc2ccc([Si](C)(C)C)c(F)c2)cc1 [Example 86]: 95.2
- COCc1ccc([C@@H](NC(=O)[C@H]2CNC(=O)C2)C(=O)Nc2cc(F)c([Si](C)(C)C)c(F)c2)cc1 [Example 68]: 96.2
- COCc1ccc([C@@H](NC(=O)Cn2cnccc2=O)C(=O)Nc2cc(F)c([Si](C)(C)C)cc2F)cc1 [Example 57]: 97.3
- COCc1ccc([C@@H](NC(=O)C2CC(F)(F)C2)C(=O)Nc2ccc([Si](C)(C)C)c(F)c2)cc1 [Example 91]: 94.6
- COc1ccc(C(NC(=O)C2CNC(=O)C2)C(=O)Nc2cc(F)c([Si](C)(C)C)c(F)c2)cc1 (centres unmarked) [Example 37]: 93.6
- COCc1ccc([C@@H](NC(=O)[C@@H]2CNC(=O)C2)C(=O)Nc2cc(F)c([Si](C)(C)C)c(F)c2)cc1 [Example 52]: 98.7
- COc1ccc(C(NC(=O)Cn2ncc3ccccc32)C(=O)Nc2cc(F)c([Si](C)(C)C)cc2F)cc1 (centres unmarked) [Example 46]: 87.2
- COCc1ccc(C(NC(=O)N2CCC(O)C2)C(=O)Nc2ccc([Si](C)(C)C)c(F)c2)cc1 (centres unmarked) [Example 33]: 97.7
- COc1ccc(C(NC(=O)C2CNC(=O)C2)C(=O)Nc2cc(F)c([Si](C)(C)C)cc2F)cc1 (centres unmarked) [Example 42]: 88.5
- COCc1ccc(C(C(=O)Nc2cc(F)c([Si](C)(C)C)cc2F)N(C)C(=O)c2cc(O)no2)cc1 (centres unmarked) [Example 43]: 96.1
- COCc1ccc([C@@H](NC(=O)CC2CCOCC2)C(=O)Nc2ccc([Si](C)(C)C)c(F)c2)cc1 [Example 89]: 95.5
- COCc1ccc([C@@H](NC(=O)CC(F)(F)F)C(=O)Nc2ccc([Si](C)(C)C)c(F)c2)cc1 [Example 93]: 92.3
- COc1ccc(C(C(=O)Nc2ccc([Si](C)(C)C)c(Cl)c2)N(C)C(=O)c2cc(O)no2)cc1 (centres unmarked) [Example 48]: 73
- COCc1ccc([C@@H](NC(=O)Cc2cc(O)no2)C(=O)Nc2ccc([Si](C)(C)C)c(F)c2)cc1 [Example 75]: 95.8
- COc1ccc(C(NC(=O)C2CNC(=O)C2)C(=O)Nc2ccc([Si](C)(C)C)cc2)cc1 (centres unmarked) [Example 13]: 51.1
- COCc1ccc([C@@H](NC(=O)N2CC[C@@H](O)C2)C(=O)Nc2ccc([Si](C)(C)C)c(F)c2)cc1 [Example 66]: 94.6
- COCc1ccc([C@@H](NC(=O)C2CCOCC2)C(=O)Nc2ccc([Si](C)(C)C)c(F)c2)cc1 [Example 88]: 90.7
- Cn1ncc2cc([C@@H](NC(=O)Cc3cc(O)no3)C(=O)Nc3cc(F)c(C(C)(C)C)c(F)c3)ccc21 [Example 419]: 87
- COCc1ccc([C@@H](NC(=O)c2cc(O)no2)C(=O)Nc2cc(F)c([Si](C)(C)C)cc2F)cc1 [Example 98]: 95.8
